Target: Estrogen receptor (Rattus norvegicus) (UniProt P06211)
Sequence (whole entry): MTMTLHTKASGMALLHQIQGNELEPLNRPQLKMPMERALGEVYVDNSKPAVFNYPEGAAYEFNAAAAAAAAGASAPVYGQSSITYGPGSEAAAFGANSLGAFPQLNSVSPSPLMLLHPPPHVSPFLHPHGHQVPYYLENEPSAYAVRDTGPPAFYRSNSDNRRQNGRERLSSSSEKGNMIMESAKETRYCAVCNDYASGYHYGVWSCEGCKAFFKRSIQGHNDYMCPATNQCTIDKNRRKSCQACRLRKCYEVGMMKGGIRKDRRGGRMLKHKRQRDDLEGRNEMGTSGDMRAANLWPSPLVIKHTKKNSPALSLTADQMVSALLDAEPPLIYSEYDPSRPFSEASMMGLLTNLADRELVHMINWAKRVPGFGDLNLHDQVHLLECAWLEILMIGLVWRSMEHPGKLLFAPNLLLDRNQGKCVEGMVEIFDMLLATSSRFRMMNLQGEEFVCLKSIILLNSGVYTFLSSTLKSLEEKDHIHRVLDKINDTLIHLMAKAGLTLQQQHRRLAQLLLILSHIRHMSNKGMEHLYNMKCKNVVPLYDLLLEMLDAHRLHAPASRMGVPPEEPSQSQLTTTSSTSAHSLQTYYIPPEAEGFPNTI
Assay: Displacement of [3H]-estradiol from estrogen receptor in rat uterine cytosol at 10^-4 to 10^-10 M after 16 hrs relative to estradiol
Settings: Uterus
Reported values of RBA for individual entries

- molecule: "CC[C@H](c1ccc(O)cc1)[C@@H](CC)c1ccc(OC)cc1 (relative stereo)"
  RBA: 19.3
- molecule: "COc1ccc2c(c1)CC[C@@H]1[C@@H]2CC[C@]2(C)[C@@H](O)CC[C@@H]12"
  RBA: 3
- molecule: "OCC(O)COc1ccc([C@@H]2c3ccc(O)cc3CC[C@@H]2c2ccccc2)cc1 (stereo partly drawn)"
  RBA: 39.1
- molecule: "COc1ccc2c(c1)CC[C@H](c1ccccc1)[C@@H]2c1ccc(OCC(O)CO)cc1 (mixture of isomers)"
  RBA: 0.1
- molecule: "CC[C@H](c1ccc(O)cc1)[C@@H](CC)c1ccc(O)cc1"
  RBA: 300
- molecule: "Oc1ccc([C@@H]2c3ccc(O)cc3CC[C@@H]2c2ccccc2)cc1"
  RBA: 29.8
- molecule: "COc1ccc2c(c1)CC[C@H](c1ccccc1)[C@@H]2c1ccc(O)cc1"
  RBA: 0.24
- molecule: "CC[C@H](c1ccc(O)cc1)[C@@H](CC)c1ccc(OCC(O)CO)cc1 (relative stereo)"
  RBA: 6.9
